Reference source for all entries: ChEMBL document CHEMBL1125376

- Organism: Canis familiaris
- method notes: Effect on the transmembrane potential of dog Purkinje fibers paced at a basic cycle length of stimulation of 1000 ms, repolarization time to -60 mV; also: unit not given here
- Format: functional
- conditions: Canis lupus familiaris; Purkinje fiber
Lab note: compare APD60 against 40. Equal or greater, write TRUE. Smaller, write FALSE.

The following compounds have reported results that may help.
compound=CS(=O)(=O)Nc1ccc(S(=O)(=O)NCCNc2ncccn2)cc1 class_name=FALSE
compound="CN(CCOc1ccc(NS(C)(=O)=O)cc1)CCc1ccc(NS(C)(=O)=O)cc1 [DOFETILIDE]" class_name=TRUE
compound=CN(CCN(C)S(=O)(=O)c1ccc(NS(C)(=O)=O)cc1)c1ncc2ccccc2n1 class_name=FALSE
compound=CN(CCN(C)S(=O)(=O)c1ccc(NS(C)(=O)=O)cc1)c1ccc2ccccc2n1 class_name=TRUE
compound=Cc1cccc(CCN2CCC(C(=O)c3ccc(NS(C)(=O)=O)cc3)CC2)n1 class_name=TRUE

Asked: Decide: is the reported value of APD60 for CN(CCN1CCn2c1nc1ccccc12)S(=O)(=O)c1ccc(NS(C)(=O)=O)cc1.Cl equal to or greater than 40?
Given back: FALSE

Asked: Decide: is the reported value of APD60 for CS(=O)(=O)Nc1ccc(S(=O)(=O)N2CCNc3nc4ccccc4n3CC2)cc1 equal to or greater than 40?
Given back: TRUE

Asked: Decide: is the reported value of APD60 for CC(C)NCC(O)c1ccc(NS(C)(=O)=O)cc1 (stereo not given) equal to or greater than 40?
Given back: TRUE

Asked: Decide: is the reported value of APD60 for CNc1nc2ccccc2n1CCN(C)S(=O)(=O)c1ccc(NS(C)(=O)=O)cc1 equal to or greater than 40?
Given back: TRUE

Asked: Decide: is the reported value of APD60 for CN(CCN(C)c1ccc2ccccc2n1)C(=O)c1ccc(NS(C)(=O)=O)cc1 equal to or greater than 40?
Given back: FALSE
